Procedure Text: Cytotoxicity against human NF103 cells assessed as cell survival at 100 uM after 24 hrs by MTT assay relative to control
Format: cell-based
Recorded Conditions: read-out: Survival

- Mol: "Fc1ccc(NC(=S)N2CCN(C(c3ccccc3)c3ccccc3)CC2)cc1"
  Unit Abbreviation: "%"
  viability at 24 h, 100 µM: 52.7
- Mol: "O=C(N1CCCC1)N1CCN(C(c2ccccc2)c2ccccc2)CC1"
  Unit Abbreviation: "%"
  viability at 24 h, 100 µM: 54
- Mol: "O=C(C1CC1)N1CCN(C(c2ccccc2)c2ccccc2)CC1"
  Unit Abbreviation: "%"
  viability at 24 h, 100 µM: 55.1
- Mol: "O=C(N1CCOCC1)N1CCN(C(c2ccccc2)c2ccccc2)CC1"
  Unit Abbreviation: "%"
  viability at 24 h, 100 µM: 56.1
- Mol: "COc1cccc(NC(=S)N2CCN(C(c3ccccc3)c3ccccc3)CC2)c1"
  Unit Abbreviation: "%"
  viability at 24 h, 100 µM: 57.8
- Mol: "O=S(=O)(CC(F)(F)F)N1CCN(C(c2ccccc2)c2ccccc2)CC1"
  Unit Abbreviation: "%"
  viability at 24 h, 100 µM: 54.9
- Mol: "S=C(Nc1ccc(Cl)cc1Cl)N1CCN(C(c2ccccc2)c2ccccc2)CC1"
  Unit Abbreviation: "%"
  viability at 24 h, 100 µM: 53.5
- Mol: "S=C(Nc1ccc(Cl)cc1)N1CCN(C(c2ccccc2)c2ccccc2)CC1"
  Unit Abbreviation: "%"
  viability at 24 h, 100 µM: 54.8
- Mol: "O=S(=O)(c1ccccc1)N1CCN(C(c2ccccc2)c2ccccc2)CC1"
  Unit Abbreviation: "%"
  viability at 24 h, 100 µM: 57.4
- Mol: "O=S(=O)(c1ccc(Cl)cc1F)N1CCN(C(c2ccccc2)c2ccccc2)CC1"
  Unit Abbreviation: "%"
  viability at 24 h, 100 µM: 61

====

Test system: MCF7
Procedure Text: Cytotoxicity against human MCF7 cells assessed as cell survival at 100 uM after 24 hrs by MTT assay relative to control
Format: functional
Recorded Conditions: MCF7, 24 h, read-out: Survival

- Compound: "O=C(c1ccno1)N1CCN(C(c2ccccc2)c2ccccc2)CC1"
  viability at 100 µM (%): 44.2
- Compound: "O=C(N1CCCC1)N1CCN(C(c2ccccc2)c2ccccc2)CC1"
  viability at 100 µM (%): 71.4
- Compound: "Fc1ccc(NC(=S)N2CCN(C(c3ccccc3)c3ccccc3)CC2)cc1"
  viability at 100 µM (%): 43.9
- Compound: "O=S(=O)(CC(F)(F)F)N1CCN(C(c2ccccc2)c2ccccc2)CC1"
  viability at 100 µM (%): 41.1
- Compound: "S=C(Nc1ccc(Cl)cc1)N1CCN(C(c2ccccc2)c2ccccc2)CC1"
  viability at 100 µM (%): 66.9
- Compound: "O=S(=O)(c1ccc(Cl)cc1F)N1CCN(C(c2ccccc2)c2ccccc2)CC1"
  viability at 100 µM (%): 64
- Compound: "S=C(Nc1cccc(Cl)c1)N1CCN(C(c2ccccc2)c2ccccc2)CC1"
  viability at 100 µM (%): 73.6
- Compound: "O=C(N1CCOCC1)N1CCN(C(c2ccccc2)c2ccccc2)CC1"
  viability at 100 µM (%): 68.7
- Compound: "CC1(C)C2CCC1(CS(=O)(=O)N1CCN(C(c3ccccc3)c3ccccc3)CC1)C(=O)C2 (stereo unspecified)"
  viability at 100 µM (%): 61.7
- Compound: "O=C(C1CC1)N1CCN(C(c2ccccc2)c2ccccc2)CC1"
  viability at 100 µM (%): 61
- Compound: "COc1ccccc1NC(=S)N1CCN(C(c2ccccc2)c2ccccc2)CC1"
  viability at 100 µM (%): 54.5
- Compound: "O=S(=O)(c1ccccc1)N1CCN(C(c2ccccc2)c2ccccc2)CC1"
  viability at 100 µM (%): 68.1
- Compound: "S=C(Nc1ccc(Cl)cc1Cl)N1CCN(C(c2ccccc2)c2ccccc2)CC1"
  viability at 100 µM (%): 45.6
- Compound: "COc1cccc(NC(=S)N2CCN(C(c3ccccc3)c3ccccc3)CC2)c1"
  viability at 100 µM (%): 58.7
- Compound: "S=C(Nc1ccccc1Cl)N1CCN(C(c2ccccc2)c2ccccc2)CC1"
  viability at 100 µM (%): 69.8
- Compound: "COc1ccc(NC(=S)N2CCN(C(c3ccccc3)c3ccccc3)CC2)cc1"
  viability at 100 µM (%): 63.7

====

Procedure Text: Cytotoxicity against human NF103 cells assessed as cell survival at 100 uM after 24 hrs by MTT assay relative to control
Format: cell-based
Recorded Conditions: read-out: Survival

- Molecule: "S=C(Nc1cccc(Cl)c1)N1CCN(C(c2ccccc2)c2ccccc2)CC1"
  Unit Abbreviation: "%"
  viability at 24 h, 100 µM: 56.8
- Molecule: "COc1ccccc1NC(=S)N1CCN(C(c2ccccc2)c2ccccc2)CC1"
  Unit Abbreviation: "%"
  viability at 24 h, 100 µM: 59.7
- Molecule: "COc1ccc(NC(=S)N2CCN(C(c3ccccc3)c3ccccc3)CC2)cc1"
  Unit Abbreviation: "%"
  viability at 24 h, 100 µM: 55.9
- Molecule: "O=C(c1ccno1)N1CCN(C(c2ccccc2)c2ccccc2)CC1"
  Unit Abbreviation: "%"
  viability at 24 h, 100 µM: 58.6
- Molecule: "S=C(Nc1ccccc1Cl)N1CCN(C(c2ccccc2)c2ccccc2)CC1"
  Unit Abbreviation: "%"
  viability at 24 h, 100 µM: 59.1
- Molecule: "CC1(C)C2CCC1(CS(=O)(=O)N1CCN(C(c3ccccc3)c3ccccc3)CC1)C(=O)C2 (stereo unspecified)"
  Unit Abbreviation: "%"
  viability at 24 h, 100 µM: 60.4

====

Here, each record is paired with measured viability at 100 µM data.
Tested on: HT-29
Procedure Text: Cytotoxicity against human HT-29 cells assessed as cell survival at 100 uM after 24 hrs by MTT assay relative to control
Assay type: functional
Recorded Conditions: HT-29, 24 h, read-out: Survival

- Compound: "O=C(N1CCOCC1)N1CCN(C(c2ccccc2)c2ccccc2)CC1"
  viability at 100 µM (%): 63.4
- Compound: "O=C(C1CC1)N1CCN(C(c2ccccc2)c2ccccc2)CC1"
  viability at 100 µM (%): 72
- Compound: "O=S(=O)(CC(F)(F)F)N1CCN(C(c2ccccc2)c2ccccc2)CC1"
  viability at 100 µM (%): 43.6
- Compound: "O=S(=O)(c1ccccc1)N1CCN(C(c2ccccc2)c2ccccc2)CC1"
  viability at 100 µM (%): 69.3
- Compound: "O=C(c1ccno1)N1CCN(C(c2ccccc2)c2ccccc2)CC1"
  viability at 100 µM (%): 47.5
- Compound: "CC1(C)C2CCC1(CS(=O)(=O)N1CCN(C(c3ccccc3)c3ccccc3)CC1)C(=O)C2 (stereo unspecified)"
  viability at 100 µM (%): 79.2
- Compound: "S=C(Nc1ccccc1Cl)N1CCN(C(c2ccccc2)c2ccccc2)CC1"
  viability at 100 µM (%): 70.8
- Compound: "COc1ccc(NC(=S)N2CCN(C(c3ccccc3)c3ccccc3)CC2)cc1"
  viability at 100 µM (%): 55.6
- Compound: "COc1cccc(NC(=S)N2CCN(C(c3ccccc3)c3ccccc3)CC2)c1"
  viability at 100 µM (%): 64.8
- Compound: "S=C(Nc1cccc(Cl)c1)N1CCN(C(c2ccccc2)c2ccccc2)CC1"
  viability at 100 µM (%): 69.3
- Compound: "S=C(Nc1ccc(Cl)cc1)N1CCN(C(c2ccccc2)c2ccccc2)CC1"
  viability at 100 µM (%): 73.8
- Compound: "O=S(=O)(c1ccc(Cl)cc1F)N1CCN(C(c2ccccc2)c2ccccc2)CC1"
  viability at 100 µM (%): 76.3
- Compound: "Fc1ccc(NC(=S)N2CCN(C(c3ccccc3)c3ccccc3)CC2)cc1"
  viability at 100 µM (%): 47.4
- Compound: "S=C(Nc1ccc(Cl)cc1Cl)N1CCN(C(c2ccccc2)c2ccccc2)CC1"
  viability at 100 µM (%): 68.2
- Compound: "O=C(N1CCCC1)N1CCN(C(c2ccccc2)c2ccccc2)CC1"
  viability at 100 µM (%): 70.2
- Compound: "COc1ccccc1NC(=S)N1CCN(C(c2ccccc2)c2ccccc2)CC1"
  viability at 100 µM (%): 62.1
